Cited source: paper PMC9820167

Give measured pKi for each item. Keep answers brief.
Molecular target: Adrenergic alpha2C (Homo sapiens)
Sequence (P18825 whole entry): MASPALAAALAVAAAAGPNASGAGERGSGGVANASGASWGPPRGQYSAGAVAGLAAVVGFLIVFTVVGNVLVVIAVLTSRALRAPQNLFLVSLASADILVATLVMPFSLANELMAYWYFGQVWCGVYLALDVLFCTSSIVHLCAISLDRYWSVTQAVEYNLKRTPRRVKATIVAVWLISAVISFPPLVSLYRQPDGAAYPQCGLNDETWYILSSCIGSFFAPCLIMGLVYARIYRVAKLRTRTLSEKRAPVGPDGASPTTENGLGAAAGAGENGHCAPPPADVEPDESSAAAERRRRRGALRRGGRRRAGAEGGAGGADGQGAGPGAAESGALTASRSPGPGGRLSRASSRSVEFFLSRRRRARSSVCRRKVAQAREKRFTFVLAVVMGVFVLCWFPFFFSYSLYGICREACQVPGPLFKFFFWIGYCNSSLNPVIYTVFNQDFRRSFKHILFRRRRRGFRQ
Experiment: PDSP binding screen
Lab note — pKi values are minus log10 of concentrations in M.

Prompt: GET /values?readout=pKi&item= CCN(CCCNC(=O)c1ccc(-c2ccsc2)cc1)CCNC(=O)c1cc(Br)cc(OC)c1OC [21g]
Completion: 7.11

Prompt: What do you get for CCN(CCCNC(=O)c1ccc2ccccc2c1)CCNC(=O)c1cc(Br)cc(OC)c1OC [21a] ?
Completion: 6.71

Prompt: What do you get for CCCN(CCCNC(=O)c1ccc(-c2cccs2)cc1)CCNC(=O)c1cc(Br)cc(OC)c1OC [20a] ?
Completion: 6.95

Prompt: What do you get for `CCN(CCCNC(=O)c1ccc(-c2cccs2)cc1)CCNC(=O)c1cc(Br)cc(OC)c1OC` ?
Completion: 6.50

* * *

Biological target: Opioid MOR (Homo sapiens)
Sequence (P35372 whole entry): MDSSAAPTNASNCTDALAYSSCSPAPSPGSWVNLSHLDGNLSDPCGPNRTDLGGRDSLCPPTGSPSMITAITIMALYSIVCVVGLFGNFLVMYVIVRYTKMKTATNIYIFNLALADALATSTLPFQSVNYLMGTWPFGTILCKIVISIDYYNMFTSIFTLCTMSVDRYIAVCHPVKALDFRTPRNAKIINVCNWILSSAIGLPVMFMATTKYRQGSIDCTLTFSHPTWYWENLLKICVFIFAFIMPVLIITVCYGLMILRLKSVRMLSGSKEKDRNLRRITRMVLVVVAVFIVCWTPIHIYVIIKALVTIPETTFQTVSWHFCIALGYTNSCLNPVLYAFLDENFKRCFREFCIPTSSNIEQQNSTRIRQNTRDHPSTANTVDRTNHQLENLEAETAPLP
readout kind: pKi
Lab note — pKi values are minus log10 of concentrations in M.

Prompt: GET /values?readout=pKi&item= CCN(CCCNC(=O)c1ccc(-c2ccsc2)cc1)CCNC(=O)c1cc(Br)cc(OC)c1OC [21g]
Completion: 5.67

Prompt: What do you get for CCCN(CCCNC(=O)c1ccc(-c2cccs2)cc1)CCNC(=O)c1cc(Br)cc(OC)c1OC [20a] ?
Completion: 5.52

Prompt: What do you get for CCN(CCCNC(=O)c1cc2ccccc2[nH]1)CCNC(=O)c1cc(Br)cc(OC)c1OC [21d] ?
Completion: 5.62

Prompt: What do you get for CCN(CCCNC(=O)c1ccc2ccccc2c1)CCNC(=O)c1cc(Br)cc(OC)c1OC [21a] ?
Completion: 5.97

Prompt: What do you get for CCN(CCCNC(=O)c1cc2ccccc2n1C)CCNC(=O)c1cc(Br)cc(OC)c1OC [21j] ?
Completion: 5.56

Prompt: What do you get for `CCN(CCCNC(=O)c1ccc(-c2cccs2)cc1)CCNC(=O)c1cc(Br)cc(OC)c1OC` ?
Completion: 5.81

* * *

Biological target: Dopamine D1 (Homo sapiens, UniProt P21728)
Sequence (P21728 whole entry): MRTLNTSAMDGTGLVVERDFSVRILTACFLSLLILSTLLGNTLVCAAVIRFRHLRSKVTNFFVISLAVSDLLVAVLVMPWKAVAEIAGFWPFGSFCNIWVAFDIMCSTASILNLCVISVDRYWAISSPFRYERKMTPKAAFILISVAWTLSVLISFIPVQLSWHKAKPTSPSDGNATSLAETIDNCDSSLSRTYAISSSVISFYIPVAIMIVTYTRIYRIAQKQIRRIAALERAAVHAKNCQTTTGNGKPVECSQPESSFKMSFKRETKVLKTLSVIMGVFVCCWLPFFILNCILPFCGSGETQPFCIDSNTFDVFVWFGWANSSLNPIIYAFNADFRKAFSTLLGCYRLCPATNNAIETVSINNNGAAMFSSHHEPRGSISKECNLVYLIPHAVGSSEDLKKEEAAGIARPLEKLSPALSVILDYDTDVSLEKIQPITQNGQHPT
Assay: PDSP binding screen
Settings: read-out: Ki (nM) or % inhibition at 10 µM: D1
readout kind: inhibition at 10 µM

Prompt: GET /values?readout=inhibition at 10 µM&item= CCN(CCCNC(=O)c1ccc(-c2ccncc2)cc1)CCNC(=O)c1cc(Br)cc(OC)c1OC [21c]
Completion: < 50%

Prompt: What do you get for CCN(CCCNC(=O)c1cc2ccccc2[nH]1)CCNC(=O)c1cc(Br)cc(OC)c1OC [21d] ?
Completion: < 50%

Prompt: What do you get for CCN(CCCNC(=O)c1ccsc1)CCNC(=O)c1cc(Br)cc(OC)c1OC [21i] ?
Completion: < 50%

Prompt: What do you get for CCN(CCCNC(=O)c1cn2ccccc2n1)CCNC(=O)c1cc(Br)cc(OC)c1OC [21e] ?
Completion: < 50%

Prompt: What do you get for CCN(CCCNC(=O)c1ccc2ccccc2c1)CCNC(=O)c1cc(Br)cc(OC)c1OC [21a] ?
Completion: < 50%

Prompt: What do you get for CCN(CCCNC(=O)c1cc2ccccc2n1C)CCNC(=O)c1cc(Br)cc(OC)c1OC [21j] ?
Completion: < 50%

* * *

Form: system (Serotonin 5-HT6 (Homo sapiens)), quantity (pKi), values below.
Lab note — pKi values are minus log10 of concentrations in M.

Prompt: GET /values?readout=pKi&item= CCN(CCCNC(=O)c1ccc2ccccc2c1)CCNC(=O)c1cc(Br)cc(OC)c1OC [21a]
Completion: 6.14

Prompt: What do you get for `CCN(CCCNC(=O)c1ccc(-c2cccs2)cc1)CCNC(=O)c1cc(Br)cc(OC)c1OC` ?
Completion: 6.54

Prompt: What do you get for CCN(CCCNC(=O)c1ccc(-c2ccncc2)cc1)CCNC(=O)c1cc(Br)cc(OC)c1OC [21c] ?
Completion: 5.73

Prompt: What do you get for CCCN(CCCNC(=O)c1ccc(-c2cccs2)cc1)CCNC(=O)c1cc(Br)cc(OC)c1OC [20a] ?
Completion: 6.59

Prompt: What do you get for CCN(CCCNC(=O)c1ccc(-c2ccsc2)cc1)CCNC(=O)c1cc(Br)cc(OC)c1OC [21g] ?
Completion: 6.44

Prompt: What do you get for CCN(CCCNC(=O)c1cn2ccccc2n1)CCNC(=O)c1cc(Br)cc(OC)c1OC [21e] ?
Completion: 5.63

Prompt: What do you get for CCN(CCCNC(=O)c1ccsc1)CCNC(=O)c1cc(Br)cc(OC)c1OC [21i] ?
Completion: 5.67

Prompt: What do you get for CCN(CCCNC(=O)c1cc2ccccc2n1C)CCNC(=O)c1cc(Br)cc(OC)c1OC [21j] ?
Completion: 5.88

Prompt: What do you get for CCN(CCCNC(=O)c1cc2ccccc2[nH]1)CCNC(=O)c1cc(Br)cc(OC)c1OC [21d] ?
Completion: 5.79
